Target: FPR1 (Homo sapiens)
Construct: expressed in transfected cells; host or cells: HL60 (human promyelocytic leukemia), stably transfected; gift from Dr. Marie-Josephe Rabiet
Sequence (P21462 whole entry): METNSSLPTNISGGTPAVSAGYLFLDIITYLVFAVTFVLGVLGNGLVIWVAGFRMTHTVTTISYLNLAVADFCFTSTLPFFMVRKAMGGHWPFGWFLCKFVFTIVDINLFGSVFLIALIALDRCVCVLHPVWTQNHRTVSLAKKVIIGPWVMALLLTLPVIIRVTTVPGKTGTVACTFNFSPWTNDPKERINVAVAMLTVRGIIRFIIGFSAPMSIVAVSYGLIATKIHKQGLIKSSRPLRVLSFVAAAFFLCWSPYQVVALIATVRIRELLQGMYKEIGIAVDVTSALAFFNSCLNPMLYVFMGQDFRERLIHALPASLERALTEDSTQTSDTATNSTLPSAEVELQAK
Test: Ca2+ mobilization in FPR1-transfected HL60 cells
Type: cell-based
# reported EC50; entries follow

- molecule: "Cc1c(C(=O)N(C)C)cc(C#N)c(=O)n1CC(=O)Nc1ccc(Br)cc1 [Compound 8e]"
  EC50 / µM: 18
- molecule: "Cc1c(C(=O)OC(C)C)cc(C#N)c(=O)n1CC(=O)Nc1ccc(Br)cc1 [Compound 4c]"
  EC50 / µM: 7.7
- molecule: "COc1ccc(C(=O)c2cc(C#N)c(=O)n(CC(=O)Nc3ccc(Br)cc3)c2C)cc1 [Compound 11]"
  EC50 / µM: 5.2
- molecule: "Cc1c(-c2cccc(O)c2)cc(C#N)c(=O)n1CC(=O)Nc1ccc(Br)cc1 [Compound 14a]"
  EC50 / µM: 0.23

###

# reported Emax; entries follow
Test system: human neutrophils (hPMN)
Assay: Ca2+ mobilization in human neutrophils (hPMN)
Type: cell-based
Settings: Neutrophil, read-out: hPMN Efficacy (converted)
outcome measure: Emax (%)

- compound: "Cc1c(C(=O)O)cc(C#N)c(=O)n1CC(=O)Nc1ccc(Br)cc1 [Compound 2]"
  outcome measure: "Emax"
  meas value: 120
- compound: "COc1cccc(CCOC(=O)c2cc(C#N)c(=O)n(CC(=O)Nc3ccc(Br)cc3)c2C)c1 [Compound 4e]"
  outcome measure: "Emax"
  meas value: 65
- compound: "Cc1c(C(=O)N(C)C)cc(C#N)c(=O)n1CC(=O)Nc1ccc(Br)cc1 [Compound 8e]"
  outcome measure: "Emax"
  meas value: 110
- compound: "Cc1c(C(N)=O)cc(C#N)c(=O)n1CC(=O)Nc1ccc(Br)cc1 [Compound 6]"
  outcome measure: "Emax"
  meas value: 90
- compound: "CCCCNC(=O)c1cc(C#N)c(=O)n(CC(=O)Nc2ccc(Br)cc2)c1C [Compound 8d]"
  outcome measure: "Emax"
  meas value: 70
- compound: "COc1ccc(C(=O)c2cc(C(N)=O)c(=O)n(CC(=O)Nc3ccc(Br)cc3)c2C)cc1 [Compound 10]"
  outcome measure: "Emax"
  meas value: 120
- compound: "CCCNC(=O)c1cc(C#N)c(=O)n(CC(=O)Nc2ccc(Br)cc2)c1C [Compound 8c]"
  outcome measure: "Emax"
  meas value: 70

###

Target: FPR2 (Homo sapiens)
Construct: expressed in transfected cells; host or cells: HL60 (human promyelocytic leukemia), stably transfected; gift from Dr. Marie-Josephe Rabiet
Sequence (P25090 1-351): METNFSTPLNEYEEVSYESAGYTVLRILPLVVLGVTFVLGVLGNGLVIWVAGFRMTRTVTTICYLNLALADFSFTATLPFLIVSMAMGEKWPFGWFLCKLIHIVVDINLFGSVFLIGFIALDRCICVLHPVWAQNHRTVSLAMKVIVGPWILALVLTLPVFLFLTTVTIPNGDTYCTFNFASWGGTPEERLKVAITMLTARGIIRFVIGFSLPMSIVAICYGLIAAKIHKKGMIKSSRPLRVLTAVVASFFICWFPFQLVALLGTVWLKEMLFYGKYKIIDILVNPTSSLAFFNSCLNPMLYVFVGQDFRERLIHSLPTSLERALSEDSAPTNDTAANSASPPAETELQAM
Experiment: Ca2+ mobilization in FPR2-transfected HL60 cells
Assay type: cell-based
Details: HL-60; read-out: FPR2-HL60 Efficacy (converted)
outcome measure: Emax (%)

- molecule: "Cc1c(C(=O)N(C)C)cc(C#N)c(=O)n1CC(=O)Nc1ccc(Br)cc1 [Compound 8e]"
  experimental target: "FPR2 (Homo sapiens)"
  meas value: 150
- molecule: "COc1ccc(C(=O)c2cc(C#N)c(=O)n(CC(=O)Nc3ccc(Br)cc3)c2C)cc1 [Compound 11]"
  experimental target: "FPR2 (Homo sapiens)"
  meas value: 110
- molecule: "CCCCNC(=O)c1cc(C#N)c(=O)n(CC(=O)Nc2ccc(Br)cc2)c1C [Compound 8d]"
  experimental target: "FPR2 (Homo sapiens)"
  meas value: 130

###

Tested on: human neutrophils (hPMN)
Experiment: Ca2+ mobilization in human neutrophils (hPMN)
Format: cell-based
Details: Neutrophil, read-out: hPMN Efficacy (converted)

- molecule: "CNC(=O)c1cc(C#N)c(=O)n(CC(=O)Nc2ccc(Br)cc2)c1C"
  Emax: "105%"
- molecule: "CCNC(=O)c1cc(C#N)c(=O)n(CC(=O)Nc2ccc(Br)cc2)c1C"
  Emax: "80%"
- molecule: "Cc1c(-c2cccc(O)c2)cc(C#N)c(=O)n1CC(=O)Nc1ccc(Br)cc1 [Compound 14a]"
  Emax: "130%"

###

# reported Emax; entries follow
Molecular target: FPR2 (Homo sapiens, UniProt P25090)
Construct: expressed in transfected cells; host or cells: HL60 (human promyelocytic leukemia), stably transfected; gift from Dr. Marie-Josephe Rabiet
Sequence (P25090 1-351): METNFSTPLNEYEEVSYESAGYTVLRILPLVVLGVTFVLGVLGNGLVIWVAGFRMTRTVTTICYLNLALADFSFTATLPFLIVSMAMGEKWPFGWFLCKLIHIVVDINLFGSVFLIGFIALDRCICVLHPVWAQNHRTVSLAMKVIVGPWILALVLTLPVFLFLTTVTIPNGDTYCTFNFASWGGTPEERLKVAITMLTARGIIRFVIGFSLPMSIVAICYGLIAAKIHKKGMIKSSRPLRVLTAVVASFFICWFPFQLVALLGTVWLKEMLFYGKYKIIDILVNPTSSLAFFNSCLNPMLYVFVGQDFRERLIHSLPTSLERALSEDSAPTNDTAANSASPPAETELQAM
Experiment: Ca2+ mobilization in FPR2-transfected HL60 cells
Format: cell-based
Settings: HL-60; read-out: FPR2-HL60 Efficacy (converted)
outcome measure: Emax (%)

- compound: "Cc1c(-c2cccc(O)c2)cc(C#N)c(=O)n1CC(=O)Nc1cccc(O)c1 [Compound 14b]"
  unit abbrev: "%"
  meas value: 150
- compound: "Cc1c(C(=O)O)cc(C#N)c(=O)n1CC(=O)Nc1ccc(Br)cc1"
  unit abbrev: "%"
  meas value: 100
- compound: "CCCNC(=O)c1cc(C#N)c(=O)n(CC(=O)Nc2ccc(Br)cc2)c1C"
  unit abbrev: "%"
  meas value: 135
- compound: "Cc1c(-c2cccc(O)c2)cc(C#N)c(=O)n1CC(=O)Nc1ccc(Br)cc1 [Compound 14a]"
  unit abbrev: "%"
  meas value: 150
- compound: "COc1ccc(C(=O)c2cc(C(N)=O)c(=O)n(CC(=O)Nc3ccc(Br)cc3)c2C)cc1"
  unit abbrev: "%"
  meas value: 130

###

Biological target: FPR1 (Homo sapiens)
Construct: expressed in transfected cells; host or cells: HL60 (human promyelocytic leukemia), stably transfected; gift from Dr. Marie-Josephe Rabiet
Test: Ca2+ mobilization in FPR1-transfected HL60 cells
Format: cell-based
Conditions: HL-60; read-out: FPR1-HL60 Efficacy (converted)

- compound: "Cc1c(C(=O)N(C)C)cc(C#N)c(=O)n1CC(=O)Nc1ccc(Br)cc1"
  Emax (%): 110
- compound: "CCNC(=O)c1cc(C#N)c(=O)n(CC(=O)Nc2ccc(Br)cc2)c1C"
  Emax (%): 145
- compound: "CCCNC(=O)c1cc(C#N)c(=O)n(CC(=O)Nc2ccc(Br)cc2)c1C"
  Emax (%): 120
- compound: "Cc1c(C(=O)O)cc(C#N)c(=O)n1CC(=O)Nc1ccc(Br)cc1"
  Emax (%): 100
- compound: "Cc1c(-c2cccc(O)c2)cc(C#N)c(=O)n1CC(=O)Nc1ccc(Br)cc1 [Compound 14a]"
  Emax (%): 115
- compound: "CCCCNC(=O)c1cc(C#N)c(=O)n(CC(=O)Nc2ccc(Br)cc2)c1C"
  Emax (%): 140

###

Target: FPR2 (Homo sapiens)
Construct: expressed in transfected cells; host or cells: HL60 (human promyelocytic leukemia), stably transfected; gift from Dr. Marie-Josephe Rabiet
Experiment: Ca2+ mobilization in FPR2-transfected HL60 cells
Type: cell-based
pEC50: −log10 of the molar value.
# reported pEC50; entries follow
outcome measure: pEC50

- structure smiles: "COc1ccc(C(=O)c2cc(C(N)=O)c(=O)n(CC(=O)Nc3ccc(Br)cc3)c2C)cc1"
  meas value: 5.47
- structure smiles: "Cc1c(C(=O)O)cc(C#N)c(=O)n1CC(=O)Nc1ccc(Br)cc1"
  meas value: 5.04
- structure smiles: "CCCCOC(=O)c1cc(C#N)c(=O)n(CC(=O)Nc2ccc(Br)cc2)c1C"
  meas value: 4.74

###

# reported melting point; entries follow
outcome measure: melting point

- compound: "COc1cccc(-c2cc(C#N)c(=O)n(CC(=O)Nc3cccc(O)c3)c2C)c1 [Compound 13b]"
  meas value: "128 to 130 °C"
- compound: "CCCNC(=O)c1cc(C#N)c(=O)n(CC(=O)Nc2ccc(Br)cc2)c1C [Compound 8c]"
  meas value: "274 to 276 °C (dec.)"
- compound: "Cc1c(-c2cccc(O)c2)cc(C#N)c(=O)n1CC(=O)Nc1ccc(O)cc1 [Compound 14c]"
  meas value: "232 to 234 °C (dec.)"
- compound: "COc1cccc(-c2cc(C#N)c(=O)n(CC(=O)Nc3ccc(O)cc3)c2C)c1 [Compound 13c]"
  meas value: "127 to 129 °C"

Values were extracted from paper PMC8587000.
